# Test system: Avian myeloblastosis virus reverse transcriptase (Avian myeloblastosis virus)
# RUN DESCRIPTION: Percent inhibition against AMV reverse transcriptase when (dT)n-(rA)12-18 sequence was used as template at 50 uM concentration
Measured inhibition, listed per entry.
The answer is to be given in %; state only the numeric part.

Enquiry: Could you tell me which inhibition is on file for `Br.Cn1cc(NC=O)cc1C(=O)Nc1cc(C(=O)Nc2c[nH]c(C(=O)NCCC(=N)N)c2)n(C)c1` ?
Return: 17

Enquiry: Could you tell me which inhibition is on file for `Br.CCn1cc(NC(=O)c2cc(NC(=O)c3cc(NC=O)cn3C)cn2C)cc1C(=O)NCCC(=N)N` ?
Return: 11

Enquiry: Could you tell me which inhibition is on file for `Br.CN(C)C(=N)CCNC(=O)c1cc(NC(=O)c2cc(NC(=O)c3cc(NC=O)cn3C)cn2C)cn1C` ?
Return: 15

Enquiry: Could you tell me which inhibition is on file for `Br.Cn1cc(NC(=O)c2cc(NC(=O)c3cc(NC=O)c[nH]3)cn2C)cc1C(=O)NCCC(=N)N` ?
Return: 18

Enquiry: Could you tell me which inhibition is on file for `Br.CNC(=N)CCNC(=O)c1cc(NC(=O)c2cc(NC(=O)c3cc(NC=O)cn3C)cn2C)cn1C` ?
Return: 12

New cases:
Enquiry: Could you tell me which inhibition is on file for `Br.CCn1cc(NC(=O)c2cc(NC=O)cn2C)cc1C(=O)Nc1cc(C(=O)NCCC(=N)N)n(C)c1` ?
Return: 8

Enquiry: Could you tell me which inhibition is on file for `Br.Cn1cc(NC(=O)c2cc(NC(=O)c3cc(NC(=O)c4cc(NC(=O)c5cc(NC=O)cn5C)cn4C)cn3C)cn2C)cc1C(=O)NCCC(=N)N` ?
Return: 39

Enquiry: Could you tell me which inhibition is on file for `Br.CCn1cc(NC=O)cc1C(=O)Nc1cc(C(=O)Nc2cc(C(=O)NCCC(=N)N)n(C)c2)n(C)c1` ?
Return: 11

Enquiry: Could you tell me which inhibition is on file for `Br.Cn1cc(NC(=O)c2cc(NC(=O)c3cc(NC=O)cn3C)c[nH]2)cc1C(=O)NCCC(=N)N` ?
Return: 13

Enquiry: Could you tell me which inhibition is on file for `Br.CCn1cc(NC(=O)c2cc(NC(=O)c3cc(NC=O)cn3CC)cn2CC)cc1C(=O)NCCC(=N)N` ?
Return: 9

----------
# System: Nucleic Acid
# RUN DESCRIPTION: Percent inhibition against DNA polymerase alpha when (dT)n-(rA)12-18 sequence was used as template at 10 uM concentration
# Assay type: nucleic-acid assay
ENDPOINT LABEL: inhibition (%)
The answer is to be given in %; state only the numeric part.

Enquiry: Could you tell me which inhibition is on file for `Br.CCn1cc(NC(=O)c2cc(NC(=O)c3cc(NC=O)cn3C)cn2C)cc1C(=O)NCCC(=N)N` ?
Return: 40

New cases:
Enquiry: Could you tell me which inhibition is on file for `Br.Cn1cc(NC=O)cc1C(=O)Nc1cc(C(=O)Nc2c[nH]c(C(=O)NCCC(=N)N)c2)n(C)c1` ?
Return: 45

Enquiry: Could you tell me which inhibition is on file for `Br.CCn1cc(NC=O)cc1C(=O)Nc1cc(C(=O)Nc2cc(C(=O)NCCC(=N)N)n(C)c2)n(C)c1` ?
Return: 60

Enquiry: Could you tell me which inhibition is on file for `Br.CNC(=N)CCNC(=O)c1cc(NC(=O)c2cc(NC(=O)c3cc(NC=O)cn3C)cn2C)cn1C` ?
Return: 50

Enquiry: Could you tell me which inhibition is on file for `Br.Cn1cc(NC(=O)c2cc(NC(=O)c3cc(NC(=O)c4cc(NC(=O)c5cc(NC=O)cn5C)cn4C)cn3C)cn2C)cc1C(=O)NCCC(=N)N` ?
Return: 20

Enquiry: Could you tell me which inhibition is on file for `Br.Cn1cc(NC(=O)c2cc(NC(=O)c3cc(NC=O)cn3C)cn2C)cc1C(=O)NCCC(=N)N` ?
Return: 58

Cited source for all entries: ChEMBL document CHEMBL1122245
